Values were extracted from the RNAGym collection of RNA variant scans (doi:10.7554/elife.80360).

B1: HDV Ribozyme (parent)
chain: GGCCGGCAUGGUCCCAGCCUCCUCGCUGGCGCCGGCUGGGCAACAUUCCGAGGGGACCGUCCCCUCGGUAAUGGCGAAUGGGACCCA

# Variants of: B1
# TEST_METHOD_NOTES: self-cleavage, relative activity (ratio to wild type); higher = more cleavage; co-transcriptional
Classes (self-cleavage): lower level = under 0.2, middle level = from 0.2 up to 0.7, upper level = 0.7 and over

C14U C21A: lower level
G54A U65A: middle level

For the next question, use this variant.
Q: Which class holds G17U C84A ?
Result: middle level
